The measurements presented in this section are drawn from the supplement of paper PMC5998384.

- Tested on: HeLa Kyoto
- PROTOCOL_TEXT: thermal stability score vs G1/S (z-score of summed log2 fold changes over temperatures); higher = more thermally stable than in G1/S
- ASSAY_CONDITIONS: cell cycle stage: mitosis
// label = MET if thermal stability score is not less than -2, otherwise NOT MET

Past entries and their recorded results:
sequence_data="MATSVLCCLRCCRDGGTGHIPLKEMPAVQLDTQHMGTDVVIVKNGRRICGTGGCLASAPLHQNKSYFEFKIQSTGIWGIGVATQKVNLNQIPLGRDMHSLVMRNDGALYHNNEEKNRLPANSLPQEGDVVGITYDHVELNVYLNGKNMHCPASGIRGTVYPVVYVDDSAILDCQFSEFYHTPPPGFEKILFEQQIF [SPRYD7]" target_or_test_system="HeLa Kyoto" cat=MET
sequence_data="MDVNIAPLRAWDDFFPGSDRFARPDFRDISKWNNRVVSNLLYYQTNYLVVAAMMISIVGFLSPFNMILGGIVVVLVFTGFVWAAHNKDVLRRMKKRYPTTFVMVVMLASYFLISMFGGVMVFVFGITFPLLLMFIHASLRLRNLKNKLENKMEGIGLKRTPMGIVLDALEQQEEGINRLTDYISKVKE [ARL6IP5]" target_or_test_system="HeLa Kyoto" cat=MET

Now examine the next entry.
IN: Tell me whether thermal stability score is at least -2 here: MAEISDLDRQIEQLRRCELIKESEVKALCAKAREILVEESNVQRVDSPVTVCGDIHGQFYDLKELFRVGGDVPETNYLFMGDFVDRGFYSVETFLLLLALKVRYPDRITLIRGNHESRQITQVYGFYDECLRKYGSVTVWRYCTEIFDYLSLSAIIDGKIFCVHGGLSPSIQTLDQIRTIDRKQEVPHDGPMCDLLWSDPEDTTGWGVSPRGAGYLFGSDVVAQFNAANDIDMICRAHQLVMEGYKWHFNETVLTVWSAPNYCYRCGNVAAILELDEHLQKDFIIFEAAPQETRGIPSKKPVADYFL [PPP4C]
OUT: MET

* * *

- System: HeLa Kyoto;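 also: synchronized HeLa Kyoto cells, proteins quantified by TMT10plex mass spectrometry, three biological replicates, mitosis taken 0.5 h after nocodazole release, G1/S directly after double thymidine block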
- PROTOCOL_TEXT: thermal stability score vs G1/S (z-score of summed log2 fold changes over temperatures); higher = more thermally stable than in G1/S
- ASSAY_CONDITIONS: cell cycle stage: early G1 (4.5 h after nocodazole release)
ASSAY_READOUT: thermal stability score
One number for each entry.

sequence_data="MDWVMKHNGPNDASDGTVRLRGLPFGCSKEEIVQFFQGLEIVPNGITLTMDYQGRSTGEAFVQFASKEIAENALGKHKERIGHRYIEIFRSSRSEIKGFYDPPRRLLGQRPGPYDRPIGGRGGYYGAGRGSMYDRMRRGGDGYDGGYGGFDDYGGYNNYGYGNDGFDDRMRDGRGMGGHGYGGAGDASSGFHGGHFVHMRGLPFRATENDIANFFSPLNPIRVHIDIGADGRATGEADVEFVTHEDAVAAMSKDKNNMQHRYIELFLNSTPGGGSGMGGSGMGGYGRDGMDNQGGYGSVGRMGMGNNYSGGYGTPDGLGGYGRGGGGSGGYYGQGGMSGGGWRGMY [HNRNPH3]" recorded_result=3.81

# return thermal stability score for each item in the list
1. MEQPGQDPTSDDVMDSFLEKFQSQPYRGGFHEDQWEKEFEKVPLFMSRAPSEIDPRENPDLACLQSIIFDEERSPEEQAKTYKDEGNDYFKEKDYKKAVISYTEGLKKKCADPDLNAVLYTNRAAAQYYLGNFRSALNDVTAARKLKPCHLKAIIRGALCHLELKHFAEAVNWCDEGLQIDAKEKKLLEMRAKADKLKRIEQRDVRKANLKEKKERNQNEALLQAIKARNIRLSEAACEDEDSASEGLGELFLDGLSTENPHGARLSLDGQGRLSWPVLFLYPEYAQSDFISAFHEDSRFIDHLMVMFGETPSWDLEQKYCPDNLEVYFEDEDRAELYRVPAKSTLLQVLQHQRYFVKALTPAFLVCVGSSPFCKNFLRGRKVYQIR [TTC4]
2. MAAGVDCGDGVGARQHVFLVSEYLKDASKKMKNGLMFVKLVNPCSGEGAIYLFNMCLQQLFEVKVFKEKHHSWFINQSVQSGGLLHFATPVDPLFLLLHYLIKADKEGKFQPLDQVVVDNVFPNCILLLKLPGLEKLLHHVTEEKGNPEIDNKKYYKYSKEKTLKWLEKKVNQTVAALKTNNVNVSSRVQSTAFFSGDQASTDKEEDYIRYAHGLISDYIPKELSDDLSKYLKLPEPSASLPNPPSKKIKLSDEPVEAKEDYTKFNTKDLKTEKKNSKMTAAQKALAKVDKSGMKSIDTFFGVKNKKKIGKV [RNASEH2B]
3. MFSVLSYGRLVARAVLGGLSQTDPRAGGGGGGDYGLVTAGCGFGKDFRKGLLKKGACYGDDACFVARHRSADVLGVADGVGGWRDYGVDPSQFSGTLMRTCERLVKEGRFVPSNPIGILTTSYCELLQNKVPLLGSSTACIVVLDRTSHRLHTANLGDSGFLVVRGGEVVHRSDEQQHYFNTPFQLSIAPPEAEGVVLSDSPDAADSTSFDVQLGDIILTATDGLFDNMPDYMILQELKKLKNSNYESIQQTARSIAEQAHELAYDPNYMSPFAQFACDNGLNVRGGKPDDITVLLSIVAEYTD [PPTC7]
4. MAGLPRRIIKETQRLLAEPVPGIKAEPDESNARYFHVVIAGPQDSPFEGGTFKLELFLPEEYPMAAPKVRFMTKIYHPNVDKLGRICLDILKDKWSPALQIRTVLLSIQALLSAPNPDDPLANDVAEQWKTNEAQAIETARAWTRLYAMNNI [UBE2N]

OUT:
[-0.209, -0.0838, -1.55, -0.982]
